The following binders are shown together with reported pEC50 values.
target-or-system: human Claudin-6 (CLDN6) (human) (UniProt P56747)
assay-text: FACS titration of labelled mAb on HEK293T-CLDN6-mGFP cells
pEC50: −log10 of the molar value.

| binder | pEC50 |
| --- | --- |
| AB6 (antibody, V domains shown, full-length IgG (ExpiCHO)) VH: DVQLQESGPGLVKSSQSLSLTCSVTGYSITSGYYWKWIRQFPGNKLEWMGYISYDGGINYNPSLKNRISITRDTSKNQFFLKLNSVTTEDTAKYYCARFGKGAMDYWGQGTSVTVSS VL: AIVMFQSPSSLVVSAGEKVTMSCKSSQSLLNSRTRKNYLAWYQQKPGQSPKLLIYWASTRESGVPDRFTGSGSGTDFTLTISSVQAEDLAVYYCKQSYYLYTFGGGTKLEIK | 5.85 |
| AB17 (antibody, V domains shown) VH: QVQLQQSGAELAKPGASVKMSCKASGYTFTGYWMHWVKQRPGQGLEWLGYINPSTGYTESNQKFKDKATLTADKSSTTAYMQLRSLTPEDSAVYYCAREGITTVLVDYWGQGTTLTVSS VL: QIVLTQSPAIMSASLGERVTMTCTASSSVSSSYLHWYQQKPGSSPKLWIYSTSNLASGVPARFSGSGSGTSYSLTISSMEAEDAATYYCHQYHRSPPTFGAGTKLELK | 5.58 |
| AB18 (antibody, V domains shown) VH: QVQLKQSGPELEKPGASVKISCKASGYSFTGYNMNWVKQSNGKSLEWIGNIDPYYGGSTYNQKFTGKATLTVDKSSSTAYMQLKSLTSEDSAVYYCARERSGYVFSAMDYWGQGTSVTVSS VL: NIMMTQSPSSLAVSAGEKVTMSCKSSQSVLFSSNQKNYLAWYQQKPGQSPRLLIYWASTRESGVPDRFTGSGSGTDFTLTISNVQAEDLAVYYCHQYLSSRTFGAGTKLELK | 5.30 |
